study system: N-lysine methyltransferase SMYD2 (Homo sapiens, UniProt Q9NRG4)
Sequence (Q9NRG4 whole entry): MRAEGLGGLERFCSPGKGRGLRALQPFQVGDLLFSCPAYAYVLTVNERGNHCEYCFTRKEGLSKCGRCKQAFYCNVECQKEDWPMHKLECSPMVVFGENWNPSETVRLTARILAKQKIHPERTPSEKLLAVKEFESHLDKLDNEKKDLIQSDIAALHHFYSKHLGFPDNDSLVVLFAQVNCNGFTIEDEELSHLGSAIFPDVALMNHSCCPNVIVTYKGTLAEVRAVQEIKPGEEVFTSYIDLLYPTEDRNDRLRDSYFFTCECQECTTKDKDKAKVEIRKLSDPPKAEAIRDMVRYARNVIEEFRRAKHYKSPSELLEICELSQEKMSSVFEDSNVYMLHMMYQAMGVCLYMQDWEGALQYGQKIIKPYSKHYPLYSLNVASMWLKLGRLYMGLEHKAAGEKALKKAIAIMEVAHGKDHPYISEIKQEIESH
protocol notes: Inhibition of FLAG-tagged SMYD2 (unknown origin) expressed in human U2OS cells mediated intracellular p53 methylation incubated for 24 hrs using p53 as substrate by immunofluorescence analysis
Type: cell-based
pIC50: −log10 of the molar value.
quantity measured: pIC50

Incoming: Query (molecule): O=C1COc2c(CCNCCN(C(=O)CCNCCc3ccc(Cl)c(Cl)c3)C3CCCCC3)ccc(O)c2N1 ; field requested: pIC50
Outgoing: > 4.00

----------
study system: UniProtKB Q9NRG4
protocol notes: Inhibition of human SMYD2 overexpressing human KYSE-150 cells assessed as SMYD2 assessed as reduction in BTF3 monomethylation by Western blot analysis
Assay type: cell-based, KYSE-150 cell line
quantity measured: pIC50
Kindly note that pIC50 refers to -log10 of the concentration in mol/L and answer with the value alone.

Incoming: pIC50 for O=C(NC1CN(Cc2cnn(Cc3ccc(Cl)cc3)c2)C1)c1cn(C2CC2)nn1 ?
Outgoing: 8.54
